Target Desc: HIV-1 JR-CSF Env I309A (HIV-1 JR-CSF) (UniProt P20871)
Test Protocol: cell-based or functional assay

- Binder: "PGT-126 (antibody, V domains shown) VH: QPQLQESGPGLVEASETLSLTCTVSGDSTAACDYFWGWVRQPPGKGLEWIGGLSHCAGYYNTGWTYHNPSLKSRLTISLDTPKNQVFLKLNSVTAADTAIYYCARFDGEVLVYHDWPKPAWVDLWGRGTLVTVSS VL: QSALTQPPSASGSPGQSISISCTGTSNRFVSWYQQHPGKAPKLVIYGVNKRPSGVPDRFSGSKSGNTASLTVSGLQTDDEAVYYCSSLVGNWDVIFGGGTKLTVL"
  Fold IC50 increase relative to wild-type: "1.2 fold"
- Binder: "PGT-130 (antibody, V domains shown) VH: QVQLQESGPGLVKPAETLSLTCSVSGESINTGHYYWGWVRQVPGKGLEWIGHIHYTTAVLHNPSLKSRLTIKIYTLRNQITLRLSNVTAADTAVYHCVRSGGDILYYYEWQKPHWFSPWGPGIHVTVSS VL: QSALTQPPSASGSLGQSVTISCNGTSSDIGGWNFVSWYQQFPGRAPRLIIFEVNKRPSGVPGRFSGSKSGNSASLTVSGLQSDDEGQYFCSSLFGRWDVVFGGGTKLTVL"
  Fold IC50 increase relative to wild-type: "> 77.9 fold"
- Binder: "PGT-135 (antibody, V domains shown) VH: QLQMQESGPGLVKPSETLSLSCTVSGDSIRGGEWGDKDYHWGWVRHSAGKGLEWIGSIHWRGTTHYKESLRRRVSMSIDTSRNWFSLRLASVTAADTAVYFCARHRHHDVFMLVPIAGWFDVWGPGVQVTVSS VL: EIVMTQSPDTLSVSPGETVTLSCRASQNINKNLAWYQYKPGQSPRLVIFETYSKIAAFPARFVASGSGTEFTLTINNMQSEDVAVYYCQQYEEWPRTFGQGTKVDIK"
  Fold IC50 increase relative to wild-type: "0.3 fold"
- Binder: "PGT-127 (antibody, V domains shown) VH: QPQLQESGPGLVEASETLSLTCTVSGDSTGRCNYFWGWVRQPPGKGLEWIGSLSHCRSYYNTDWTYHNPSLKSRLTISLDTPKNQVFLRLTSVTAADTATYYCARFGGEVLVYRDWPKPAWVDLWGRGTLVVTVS VL: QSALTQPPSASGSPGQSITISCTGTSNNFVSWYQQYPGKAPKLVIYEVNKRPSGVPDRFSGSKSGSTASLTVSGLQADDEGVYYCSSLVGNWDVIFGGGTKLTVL"
  Fold IC50 increase relative to wild-type: "6 fold"
